study-system: ClpP (Staphylococcus aureus)
Construct: pET28a-clpP, purified from E. coli BL21(DE3)
experimental-protocol: biochemical
test-conditions: read-out: Relative inhibition rate (%)
measured-endpoint: inhibition at 64 µg/mL (%)

[[record]]
molecule = "O=c1cc(-c2ccccc2)oc2cc(O)cc(O)c12 [Chrysin]"
measured_endpoint = "inhibition at 64 µg/mL"
quantitative_readout = 49

[[record]]
molecule = "C/C=C/c1cc(OC)c2c(c1)C(C)C(c1ccc(O)c(OC)c1)O2 (stereo not shown) [Dehydrodiisoeugenol]"
measured_endpoint = "inhibition at 64 µg/mL"
quantitative_readout = 5.3

[[record]]
molecule = "O=C(/C=C/c1ccc(O)c(O)c1)O[C@@H]1C[C@](O)(C(=O)O)C[C@@H](O)[C@H]1O [Chlorogenic acid]"
measured_endpoint = "inhibition at 64 µg/mL"
quantitative_readout = 10.4

[[record]]
molecule = "COc1ccc(-c2oc3c(OC)c(O)cc(O)c3c(=O)c2O)cc1 [Prudomestin]"
measured_endpoint = "inhibition at 64 µg/mL"
quantitative_readout = 54.2


----------
Each entry below carries its reported inhibition at 64 µg/mL.
study-system: ClpP (Staphylococcus aureus, UniProt Q2G036)
Construct: pET28a-clpP, purified from E. coli BL21(DE3)
Sequence (Q2G036 whole entry): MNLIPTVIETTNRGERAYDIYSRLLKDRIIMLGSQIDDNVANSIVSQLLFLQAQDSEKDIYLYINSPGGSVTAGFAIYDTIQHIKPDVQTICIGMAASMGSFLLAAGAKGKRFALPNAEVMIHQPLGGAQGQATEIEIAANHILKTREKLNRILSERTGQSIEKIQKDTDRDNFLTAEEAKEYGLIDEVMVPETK
experimental-protocol: biochemical
test-conditions: read-out: Relative inhibition rate (%)
measured-endpoint: inhibition at 64 µg/mL (%)

[[record]]
compound = "COC(=O)[C@@]12OC[C@]34[C@H]([C@@H](O)[C@@H]1O)[C@@]1(C)CC(=O)C(O)=C(C)[C@@H]1C[C@H]3OC(=O)[C@H](OC(C)=O)[C@@H]24"
unit_string = "%"
quantitative_readout = 1.6

[[record]]
compound = "O=Cc1ccc(O[C@@H]2O[C@H](CO)[C@@H](O)[C@@H](O)[C@H]2O)cc1"
unit_string = "%"
quantitative_readout = 13.9

[[record]]
compound = "COC(=O)C1=CO[C@@H](O[C@@H]2O[C@H](CO)[C@@H](O)[C@H](O)[C@H]2O)[C@@H]2[C@@H](C)[C@@H](O)C[C@H]12"
unit_string = "%"
quantitative_readout = 14.7

[[record]]
compound = "Cc1coc2c1C(=O)C(=O)c1c-2ccc2c(C)cccc12"
unit_string = "%"
quantitative_readout = 12.3

[[record]]
compound = "COc1ccc(-c2cc(=O)c3c(O)c(OC)c(OC)cc3o2)cc1O [3',5-Dihydroxy-4',6,7-trimethoxyflavone]"
unit_string = "%"
quantitative_readout = 55.8

[[record]]
compound = "O=C1C([C@@H]2O[C@H](CO)[C@@H](O)[C@H](O)[C@H]2O)=C(O)/C(=C(O)/C=C/c2ccc(O)cc2)C(=O)C1(O)[C@@H]1O[C@H](CO)[C@@H](O)[C@H](O)[C@H]1O (stereo partly drawn) [Hydroxysafflor yellow A]"
unit_string = "%"
quantitative_readout = 52.4


----------
study-system: ClpP (Staphylococcus aureus, UniProt Q2G036)
Construct: pET28a-clpP, purified from E. coli BL21(DE3)
experimental-protocol: biochemical
test-conditions: read-out: Relative inhibition rate (%)
In this section we review reported inhibition at 64 µg/mL values for a set of molecules.
measured-endpoint: inhibition at 64 µg/mL (%)

[[record]]
molecule = "COc1ccc(CCC(=O)c2ccc(O)cc2)c(OC)c1"
unit_string = "%"
quantitative_readout = 56.5

[[record]]
molecule = "COc1ccc(-c2oc3c(CC=C(C)C)c(O[C@@H]4O[C@H](CO)[C@@H](O)[C@H](O)[C@H]4O)cc(O)c3c(=O)c2O[C@@H]2O[C@@H](C)[C@H](O)[C@@H](O[C@@H]3O[C@H](CO)[C@@H](O)[C@H](O)[C@H]3O)[C@H]2O)cc1 [Epimedin A1]"
unit_string = "%"
quantitative_readout = 26.7

[[record]]
molecule = "COc1ccc(-c2cc(=O)c3c(O)cc(OC)cc3o2)cc1"
unit_string = "%"
quantitative_readout = 18.4

[[record]]
molecule = "COc1ccc(/C=C/c2cc(O)cc(O)c2)cc1O"
unit_string = "%"
quantitative_readout = 42.2

[[record]]
molecule = "C=C1CC[C@@H]2[C@](C)(CO)[C@H](O)CC[C@@]2(C)[C@@H]1C/C=C1/C(=O)OC[C@H]1O [Andrographolide]"
unit_string = "%"
quantitative_readout = 15.8

[[record]]
molecule = "COc1ccc(-c2oc3cc(OC)c(OC)c(O)c3c(=O)c2OC)cc1O"
unit_string = "%"
quantitative_readout = 56.8

[[record]]
molecule = "COc1ccc(-c2coc3cc(O)cc(O)c3c2=O)cc1"
unit_string = "%"
quantitative_readout = 28.2


----------
Examples of molecules with documented inhibition at 64 µg/mL follow.
study-system: ClpP (Staphylococcus aureus, UniProt Q2G036)
Construct: pET28a-clpP, purified from E. coli BL21(DE3)
experimental-protocol: biochemical
test-conditions: read-out: Relative inhibition rate (%)
measured-endpoint: inhibition at 64 µg/mL (%)

[[record]]
compound_structure = "C=C(C)[C@@H]1CCC(C)=C[C@H]1c1c(O)cc(CCCCC)cc1O"
study_system = "ClpP (Staphylococcus aureus, UniProt Q2G036)"
measured_endpoint = "inhibition at 64 µg/mL"
unit_string = "%"
quantitative_readout = 6.8

[[record]]
compound_structure = "COc1ccc(C(=O)O)cc1O"
study_system = "ClpP (Staphylococcus aureus, UniProt Q2G036)"
measured_endpoint = "inhibition at 64 µg/mL"
unit_string = "%"
quantitative_readout = 13.7

[[record]]
compound_structure = "O=c1cc(-c2ccc(O)c(O)c2)oc2cc(O)c([C@@H]3O[C@H](CO)[C@@H](O)[C@H](O)[C@H]3O)c(O)c12"
study_system = "ClpP (Staphylococcus aureus, UniProt Q2G036)"
measured_endpoint = "inhibition at 64 µg/mL"
unit_string = "%"
quantitative_readout = 50.2

[[record]]
compound_structure = "O=c1c(-c2ccc(O)cc2)coc2cc(O)cc(O)c12"
study_system = "ClpP (Staphylococcus aureus, UniProt Q2G036)"
measured_endpoint = "inhibition at 64 µg/mL"
unit_string = "%"
quantitative_readout = 33.5

[[record]]
compound_structure = "Cc1c(O)c(C)c2c(c1O)C(=O)C[C@@H](c1ccc(O)cc1)O2"
study_system = "ClpP (Staphylococcus aureus, UniProt Q2G036)"
measured_endpoint = "inhibition at 64 µg/mL"
unit_string = "%"
quantitative_readout = 33.5


----------
study-system: ClpP (Staphylococcus aureus, UniProt Q2G036)
Construct: pET28a-clpP, purified from E. coli BL21(DE3)
experimental-protocol: biochemical
test-conditions: read-out: Relative inhibition rate (%)
measured-endpoint: inhibition at 64 µg/mL

[[record]]
compound = "COc1ccc(/C=C/C(=O)c2c(O)cc(OC)cc2OC)cc1"
measured_endpoint = "inhibition at 64 µg/mL"
result = "2.6%"

[[record]]
compound = "COc1ccc(-c2coc3cc(O[C@@H]4O[C@H](CO)[C@@H](O)[C@H](O)[C@H]4O)ccc3c2=O)cc1O [Calycosin-7-glucoside]"
measured_endpoint = "inhibition at 64 µg/mL"
result = "4.2%"

[[record]]
compound = "O=c1c(-c2ccccc2)coc2ccccc12"
measured_endpoint = "inhibition at 64 µg/mL"
result = "20.1%"

[[record]]
compound = "COc1cc(O)c2c(=O)c(O[C@@H]3O[C@H](CO)[C@@H](O)[C@H](O)[C@H]3O)c(-c3ccc(O[C@@H]4O[C@H](CO)[C@@H](O)[C@H](O)[C@H]4O)cc3)oc2c1 [Complanatuside]"
measured_endpoint = "inhibition at 64 µg/mL"
result = "12.3%"


----------
study-system: ClpP (Staphylococcus aureus, UniProt Q2G036);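 note: ClpP peptidase activity measured as fluorescence (ex 360 nm, em 465 nm) from cleavage of Suc-LY-AMC substrate at 100 µM, 30 min at 32°C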
Construct: pET28a-clpP, purified from E. coli BL21(DE3)
experimental-protocol: biochemical
test-conditions: read-out: Relative inhibition rate (%)
The entries below come with measured inhibition at 64 µg/mL values attached.
measured-endpoint: inhibition at 64 µg/mL (%)

[[record]]
molecule = "C=CC/C(=N/OS(=O)(=O)O)S[C@@H]1O[C@H](CO)[C@@H](O)[C@H](O)[C@H]1O"
measured_endpoint = "inhibition at 64 µg/mL"
quantitative_readout = 20.1

[[record]]
molecule = "O=C(/C=C/c1ccc(O)c(O)c1)O[C@H]1[C@H](O)C[C@](O)(C(=O)O)C[C@H]1O"
measured_endpoint = "inhibition at 64 µg/mL"
quantitative_readout = 13.7

[[record]]
molecule = "O=C1O[C@H]2[C@@H]3OC(=O)c4cc(O)c(O)c(O)c4-c4c(O)c(O)c5oc(=O)c6c(c(O)c(O)c7oc(=O)c4c5c76)-c4c(cc(O)c(O)c4O)C(=O)OC[C@H]3OC(O)[C@@H]2OC(=O)c2cc(O)c(O)c(O)c2-c2c1cc(O)c(O)c2O (mixture of isomers)"
measured_endpoint = "inhibition at 64 µg/mL"
quantitative_readout = 28.3

[[record]]
molecule = "Oc1ccc2c(c1)OC[C@]1(O)Cc3cc(O)c(O)cc3[C@H]21"
measured_endpoint = "inhibition at 64 µg/mL"
quantitative_readout = 47.2

[[record]]
molecule = "O=c1c(O)c(-c2ccc(O)c(O)c2)oc2cc(O)cc(O)c12"
measured_endpoint = "inhibition at 64 µg/mL"
quantitative_readout = 74.3

[[record]]
molecule = "COc1ccc(-c2cc(=O)c3c(O)cc(O[C@@H]4O[C@H](CO[C@@H]5O[C@@H](C)[C@H](O)[C@@H](O)[C@H]5O)[C@@H](O)[C@H](O)[C@H]4O)cc3o2)cc1 [Buddleoside]"
measured_endpoint = "inhibition at 64 µg/mL"
quantitative_readout = 46.2

[[record]]
molecule = "O=c1c(O[C@@H]2O[C@H](CO)[C@@H](O)[C@H](O)[C@H]2O)c(-c2ccc(O)cc2)oc2cc(O)cc(O)c12"
measured_endpoint = "inhibition at 64 µg/mL"
quantitative_readout = 51.3

[[record]]
molecule = "O=C1c2ccccc2C(=O)c2c1ccc(O)c2O"
measured_endpoint = "inhibition at 64 µg/mL"
quantitative_readout = 56.6

[[record]]
molecule = "CC1=CC(=O)CC(C)(C)[C@@]1(O)/C=C/C(C)=C\\C(=O)O [Abscisic acid]"
measured_endpoint = "inhibition at 64 µg/mL"
quantitative_readout = 0.8

[[record]]
molecule = "O=C1c2c(O)cc(O)cc2O[C@H](c2ccc(O)c(O)c2)[C@H]1O"
measured_endpoint = "inhibition at 64 µg/mL"
quantitative_readout = 17.2

[[record]]
molecule = "COc1cc(-c2oc3cc(OC)c(OC)c(O)c3c(=O)c2OC)ccc1O"
measured_endpoint = "inhibition at 64 µg/mL"
quantitative_readout = 52.4

[[record]]
molecule = "O=C1c2ccccc2C(=O)c2c(O)c(O)cc(O)c21"
measured_endpoint = "inhibition at 64 µg/mL"
quantitative_readout = 11.6

[[record]]
molecule = "COc1cc2c(cc1O)C[C@H]1c3cc(O)c(OC)cc3CC[N+]1(C)C2 (some centres unmarked) [Phellodendrine chloride]"
measured_endpoint = "inhibition at 64 µg/mL"
quantitative_readout = 10.2

[[record]]
molecule = "CC(=O)O[C@H]1C(=O)[C@@]2(C)[C@H]([C@H](OC(=O)c3ccccc3)[C@]3(O)C[C@H](O)C(C)=C1C3(C)C)[C@]1(OC(C)=O)CO[C@@H]1C[C@@H]2O"
measured_endpoint = "inhibition at 64 µg/mL"
quantitative_readout = 7.2


The origin of these recorded values is paper PMC9045277.
